Molecular target: HLA-A*03:01
Experiment: IEDB peptide-MHC binding, purified MHC/direct/fluorescence; filed as Kd, often an IC50 or EC50 that approximates it; bounds were set here for any values at or beyond the usual limits of such assays
Details: source organism: West Nile virus
METRIC NAME: Kd

CHAIN	METRIC NAME	ASSAY RESULT
ITYTDVLRY	Kd	144 nM

---

Target: HLA-B*15:01
Assay: IEDB peptide-MHC binding, purified MHC/competitive/radioactivity; filed as Kd, often an IC50 or EC50 that approximates it; bounds were set here for any values at or beyond the usual limits of such assays
Details: source organism: Dengue virus 2 Peru/IQT2913/1996

CHAIN	RESULT UNITS	Kd
FTMRHKKATY	µM	0.138

---

Biological target: HLA-B*46:01
Assay: IEDB peptide-MHC binding, purified MHC/competitive/fluorescence; filed as Kd, often an IC50 or EC50 that approximates it; bounds were set here for any values at or beyond the usual limits of such assays
Settings: source organism: Salmonella enterica subsp. enterica serovar Typhi

CHAIN	Kd
HVTQHWPQL	≥ 20 µM

---

Target: HLA-A*30:02
Assay: IEDB peptide-MHC binding, purified MHC/competitive/radioactivity; filed as Kd, often an IC50 or EC50 that approximates it; bounds were set here for any values at or beyond the usual limits of such assays
Settings: source organism: Dengue virus 1 Brazil/97-11/1997
METRIC NAME: Kd (µM)

CHAIN	ASSAY RESULT
KTKNNDWDY	0.015

---

Target: HLA-B*15:01
Test: IEDB peptide-MHC binding, purified MHC/competitive/radioactivity; filed as Kd, often an IC50 or EC50 that approximates it; bounds were set here for any values at or beyond the usual limits of such assays
Details: source organism: Variola virus
pKd: −log10 of the molar value.

CHAIN	pKd
LSINSSFYF	8.99

---

Biological target: HLA-A*03:01
Experiment: IEDB peptide-MHC binding, purified MHC/direct/fluorescence; filed as Kd, often an IC50 or EC50 that approximates it; bounds were set here for any values at or beyond the usual limits of such assays
Details: source organism: Mammarenavirus lassaense
pKd: −log10 of the molar value.

CHAIN	pKd
KHDEEFCDM	≤ 4.70

---

Target: HLA-A*03:01
Experiment: IEDB peptide-MHC binding, purified MHC/direct/fluorescence; filed as Kd, often an IC50 or EC50 that approximates it; bounds were set here for any values at or beyond the usual limits of such assays
Conditions: source organism: Escherichia coli O157:H7

CHAIN	Kd
RGRGVAIHR	0.487 µM
RPPRRGDKF	≥ 20 µM
ITIPIGLYL	≥ 20 µM

---

Molecular target: HLA-B*15:17
Assay: IEDB peptide-MHC binding, purified MHC/direct/fluorescence; filed as Kd, often an IC50 or EC50 that approximates it; bounds were set here for any values at or beyond the usual limits of such assays
Conditions: source organism: dengue virus type 4
pKd: −log10 of the molar value.

CHAIN	pKd
STMPLVMAW	≥ 9.00

---

Target: HLA-B*45:01
Experiment: IEDB peptide-MHC binding, purified MHC/competitive/radioactivity; filed as Kd, often an IC50 or EC50 that approximates it; bounds were set here for any values at or beyond the usual limits of such assays
Details: source organism: Mammarenavirus guanaritoense

CHAIN	Kd
RDLVISDSS	≥ 77.7 µM
ADSLDFTQV	6.12 µM
PEFDWILGW	≥ 77.7 µM
